Entries annotated with measured solubility (g/100 g solution)
Experiment: xn = mol fraction of the nth substance listed, in the solute-free solvent
Settings: 298.15 K; x2 = 0.4
measured_property: solubility (g/100 g solution)

In [3]: df
Out[3]:
                                    compound              measured_property  test_result
 0  CCOC(=O)OC1=C(c2cc(C)ccc2C)C(=O)NC12CCC(OC)CC2 (stereo not given) + CC(C)O + O  solubility (g/100 g solution)         6.36
 1          Cc1ncc(CO)c(CO)c1O.Cl + O + CCCO  solubility (g/100 g solution)         3.25
 2          Cc1ncc(CO)c(CO)c1O.Cl + O + CC#N  solubility (g/100 g solution)         3.32
 3  CCOC(=O)OC1=C(c2cc(C)ccc2C)C(=O)NC12CCC(OC)CC2 (stereo not given) + CO + O  solubility (g/100 g solution)        0.803
 4  N#CCNC(=O)c1cnccc1C(F)(F)F + CCOC(C)=O + CCO  solubility (g/100 g solution)         8.78
 5             CCOc1ccccc1C(N)=O + CO + CC#N  solubility (g/100 g solution)         9.11
 6        Cc1ncc(CO)c(CO)c1O.Cl + O + CC(C)O  solubility (g/100 g solution)         1.84
 7  COC(=O)C(N)CS.Cl (stereo not given) + CCO + ClCCl  solubility (g/100 g solution)         4.98
 8  Cc1c(Br)c(=O)n(C2CCCC2)c2nc(Cl)ncc12 + C1CCOC1 + CCO  solubility (g/100 g solution)         3.84
 9  Cc1c(Br)c(=O)n(C2CCCC2)c2nc(Cl)ncc12 + CC1=CC(=O)CC(C)(C)C1 + CC(C)O  solubility (g/100 g solution)         1.02
10  Cc1c(Br)c(=O)n(C2CCCC2)c2nc(Cl)ncc12 + CCOC(C)=O + CCO  solubility (g/100 g solution)        0.665
11            CCOc1ccccc1C(N)=O + CCO + CC#N  solubility (g/100 g solution)         7.99
12         CCOc1ccccc1C(N)=O + CC#N + CC(C)O  solubility (g/100 g solution)         6.41
13  CCOC(=O)OC1=C(c2cc(C)ccc2C)C(=O)NC12CCC(OC)CC2 (stereo not given) + CCO + O  solubility (g/100 g solution)         3.91
14  CCOC(=O)OC1=C(c2cc(C)ccc2C)C(=O)NC12CCC(OC)CC2 (stereo not given) + CC(C)=O + O  solubility (g/100 g solution)         8.55

Every entry's value here was drawn from the CheMixHub drug solubility set.
